System: M14 melanoma
Test: NCI tumour cell line growth inhibition, 48 h
# binarize TGI: threshold 20 µM inclusive, high side Criterion met, low side Criterion not met

Qu. Is it the case that C=C1C(=O)O[C@H]2[C@H]3O[C@@H](C[C@@H]12)[C@@]1(C)CC[C@H](O1)C(C)=CCC[C@H]3C has TGI reaching or exceeding 20 µM?
Ans. Criterion not met

Qu. Is it the case that C=CCC(OCCOCC)c1cc(OCCOCC)ccc1OC (centres undefined) has TGI reaching or exceeding 20 µM?
Ans. Criterion met

Qu. Is it the case that CCOC(=O)C1(C/C=C\CBr)CCCCCCCCCCC1=O (centres undefined) has TGI reaching or exceeding 20 µM?
Ans. Criterion met

Qu. Is it the case that Cc1ccc(S(=O)(=O)n2c3c(c4ccccc42)CCN2CCC(Br)C[C@@H]32)cc1 (some centres undefined) has TGI reaching or exceeding 20 µM?
Ans. Criterion met

Qu. Is it the case that CS/C(C)=N/OC(=O)NCCCCNc1ccc(N=[N+]=[N-])cc1 has TGI reaching or exceeding 20 µM?
Ans. Criterion met

Qu. Is it the case that CC(=O)Nc1ccc(/C=C/C(=O)c2sc(-c3nc(C)c(C(=O)/C=C/c4ccc(NC(C)=O)cc4)s3)nc2C)cc1 has TGI reaching or exceeding 20 µM?
Ans. Criterion met

Qu. Is it the case that O=C1/C(=C/c2c(Cl)[nH]c3ccccc23)c2ccccc2N1c1ccccc1 has TGI reaching or exceeding 20 µM?
Ans. Criterion not met

Qu. Is it the case that CC(=O)O[C@H]1CC[C@@]2(C)[C@@H](CC[C@@H]3[C@@H]2CC[C@]2(C)C=C(C=O)C[C@@H]32)C1 has TGI reaching or exceeding 20 µM?
Ans. Criterion met

Qu. Is it the case that O=C(c1cccnc1)c1cc(-c2ccccn2)c(=O)n2ccccc12 has TGI reaching or exceeding 20 µM?
Ans. Criterion met

---

Kindly state TGI for each of the entries shown.
System: SK-MEL-28 melanoma
Assay: NCI tumour cell line growth inhibition, 48 h

Qu. Quick one: TGI of CCC(/C=C/c1ccccc1)=N\Nc1ccc(Cl)c(Cl)c1 ?
Ans. > 100 µM

Qu. Quick one: TGI of Cc1ccc(Sc2ccc(C)cc2[N+](=O)[O-])c([N+](=O)[O-])c1 ?
Ans. > 100 µM

Qu. Quick one: TGI of O=C(NN1C(=O)CSC1c1ccc(C(F)(F)F)cc1)c1ccncc1 (centres undefined) ?
Ans. > 100 µM

Qu. Quick one: TGI of CC(=O)N1N(c2ccc([N+](=O)[O-])cc2)C(=O)C1(C)C ?
Ans. 37.4 µM

Qu. Quick one: TGI of CC(C)(CO)NC(=O)Nc1c(C(F)(F)F)cc(-c2ccccc2)[nH]c1=O ?
Ans. > 100 µM

Qu. Quick one: TGI of O=C1[C@@H]2C[C@@H](O)CN2C(=O)c2ccccc2N1CCCO ?
Ans. > 100 µM

Qu. Quick one: TGI of COc1cccc2c1C(=O)c1ccc3cc(CCl)cc(O)c3c1C2=O ?
Ans. 1.04 µM

Qu. Quick one: TGI of CS/C(C)=N/OC(=O)NCCCCNc1ccc(N=[N+]=[N-])cc1 ?
Ans. > 100 µM

Qu. Quick one: TGI of CCCCCC[C@H]1C(=O)O[C@H](C)[C@H](NC(=O)c2cccc(NC=O)c2OC)C(=O)O[C@@H](C)[C@@H]1OC(=O)CC(C)C (tested in a mixture with another compound) ?
Ans. > 100 µM
